- Tested on: SN12C renal
- Method: NCI tumour cell line growth inhibition, 48 h
Reported GI50 is given for each of the following compounds.

{"columns": ["Entry Smiles", "GI50"],
 "data": [
  ["O=C(Nc1cccc(Cl)c1)Nc1cc(C(F)(F)F)ccc1Cl", "3.01 µM"],
  ["CC(=O)OCc1cc[c]([Hg][Cl])o1", "5.24 µM"],
  ["Cc1cc(S(=O)(=O)Nc2nc3ccccc3s2)c(SCc2ccccc2)cc1Cl", "14.3 µM"],
  ["COc1cc(N2CCN(C(C)C)CC2)ccc1Nc1nc(Nc2ccc(F)cc2C(N)=O)c2cc[nH]c2n1", "2.54 µM"],
  ["O=C(COc1ccc(Cl)cc1Cl)NNc1ccc([N+](=O)[O-])cc1", "80 µM"],
  ["Cc1ccccc1N=C(c1ccccc1)C1C(=O)c2ccccc2C1=O", "19.9 µM"],
  ["CC(=O)Nc1ccc2c(c1)[nH]c(=O)c1cc(NC(C)=O)ccc12", "> 100 µM"]
]}
